Experimental details: Photo selectivity index, ratio of CC50 for darktoxicity in mouse 4T1 cells assessed as cell viability preincubated for 24 hrs followed by incubation under dark condition for 24 hrs by MTT assay to IC50 for phototoxicity in mouse 4T1 cells assessed as cell viability preincubated for 24 hrs followed by white light irradiation at 20 mW/cm2 for 10 mins and measured after 24 hrs by MTT assay
Format: toxicity, cell-based
Applied conditions: read-out: Ratio CC50/IC50
Observation type: selectivity ratio

{"Compound": "COC(=O)c1cc2c3ccccc3n(C)c2c(C2=C3C(C)=C(I)C(C)=[N+]3[B-](F)(F)n3c(C)c(I)c(C)c32)n1", "selectivity ratio": "> 5290"}
{"Compound": "C=Cc1c(C)c2cc3nc(c(CC(=O)O)c4[nH]c(cc5nc(cc1[nH]2)C(C)=C5CC)c(C)c4C(=O)O)[C@@H](CCC(=O)O)[C@@H]3C [CHLORIN E6]", "selectivity ratio": "> 58"}

Note: attention shifts to another entry.
Name the recorded selectivity ratio for `CC1=C(I)C(C)=[N+]2C1=C(c1nccc3c1[nH]c1ccccc13)c1c(C)c(I)c(C)n1[B-]2(F)F` .
18

* * *

Experimental details: Photo selectivity index, ratio of CC50 for darktoxicity in human Bcap37 cells assessed as cell viability preincubated for 24 hrs followed by incubation under dark condition for 24 hrs by MTT assay to IC50 for phototoxicity in human Bcap37 cells assessed as cell viability preincubated for 24 hrs followed by white light irradiation at 20 mW/cm2 for 10 mins and measured after 24 hrs by MTT assay
Format: toxicity, cell-based
Applied conditions: read-out: Ratio CC50/IC50
Observation type: selectivity ratio

{"Compound": "COC(=O)c1cc2c3ccccc3n(C)c2c(C2=C3C(C)=C(I)C(C)=[N+]3[B-](F)(F)n3c(C)c(I)c(C)c32)n1", "Observation type": "selectivity ratio", "Result": "> 8830"}

Name the recorded selectivity ratio for `CC1=C(I)C(C)=[N+]2C1=C(c1nccc3c1[nH]c1ccccc13)c1c(C)c(I)c(C)n1[B-]2(F)F` .
> 3880

Name the recorded selectivity ratio for `C=Cc1c(C)c2cc3nc(c(CC(=O)O)c4[nH]c(cc5nc(cc1[nH]2)C(C)=C5CC)c(C)c4C(=O)O)[C@@H](CCC(=O)O)[C@@H]3C` .
> 39

* * *

Experimental details: Darktoxicity in human Bcap37 cells assessed as cell viability preincubated for 24 hrs followed by incubation under dark condition for 24 hrs by MTT assay
Format: toxicity, cell-based
Applied conditions: time 48 hrs
Observation type: CC50 at 24 h

Please review the entries below; each comes with its answer.
{"Compound": "CC1=C(I)C(C)=[N+]2C1=C(c1nccc3c1[nH]c1ccccc13)c1c(C)c(I)c(C)n1[B-]2(F)F", "Result": "> 100 µM"}
{"Compound": "C=Cc1c(C)c2cc3nc(c(CC(=O)O)c4[nH]c(cc5nc(cc1[nH]2)C(C)=C5CC)c(C)c4C(=O)O)[C@@H](CCC(=O)O)[C@@H]3C [CHLORIN E6]", "Result": "> 50 µM"}

Note: attention shifts to another entry.
Name the recorded CC50 at 24 h for `COC(=O)c1cc2c3ccccc3n(C)c2c(C2=C3C(C)=C(I)C(C)=[N+]3[B-](F)(F)n3c(C)c(I)c(C)c32)n1` .
> 100 µM

* * *

Experimental details: Phototoxicity in mouse 4T1 cells assessed as cell viability preincubated for 24 hrs followed by white light irradiation at 20 mW/cm2 for 10 mins and measured after 24 hrs by MTT assay
Format: functional, cell-based
Applied conditions: 4T1, light or radiation study
Observation type: IC50

{"Compound": "CC1=C(I)C(C)=[N+]2C1=C(c1nccc3c1[nH]c1ccccc13)c1c(C)c(I)c(C)n1[B-]2(F)F", "IC50": "23 nM"}

Name the recorded IC50 for `C=Cc1c(C)c2cc3nc(c(CC(=O)O)c4[nH]c(cc5nc(cc1[nH]2)C(C)=C5CC)c(C)c4C(=O)O)[C@@H](CCC(=O)O)[C@@H]3C` .
862 nM

Name the recorded IC50 for `COC(=O)c1cc2c3ccccc3n(C)c2c(C2=C3C(C)=C(I)C(C)=[N+]3[B-](F)(F)n3c(C)c(I)c(C)c32)n1` .
19 nM
